Recorded values, source the supplement of paper PMC11061612.

System: MFE-296 (Endometrial Carcinoma);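 further: after 72 h of two-drug dosing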
experiment: Bliss excess, mean over the matrix (fraction); higher = more synergy
endpoint: Bliss excess
Response field accepts a number only; no unit should be typed.

Look over these answered cases.
NC1(C(=O)N[C@@H](CCO)c2ccc(Cl)cc2)CCN(c2ncnc3[nH]ccc23)CC1 [Capivasertib] + CCN(CCO)CCCOc1ccc2c(Nc3cc(CC(=O)Nc4cccc(F)c4)[nH]n3)ncnc2c1 [AZD2811] (first compound max 10 µM, 7x7, partner max 1 µM): -0.0593
CC1(C)CCC(CN2CCN(c3ccc(C(=O)NS(=O)(=O)c4ccc(NCC5CCOCC5)c([N+](=O)[O-])c4)c(Oc4cnc5[nH]ccc5c4)c3)CC2)=C(c2ccc(Cl)cc2)C1 [Venetoclax] + Cc1cc2ncnn2cc1Nc1ncc2c(n1)n(C1CCOCC1)c(=O)n2C [AZD7648] (first compound max 1 µM, 7x7, partner max 10 µM): -0.0065
NC1(C(=O)N[C@@H](CCO)c2ccc(Cl)cc2)CCN(c2ncnc3[nH]ccc23)CC1 [Capivasertib] + C[C@@H]1COCCN1C2=NC(=NC(=C2)C3(CC3)[S@](=N)(=O)C)C4=C5C=CNC5=NC=C4 [AZD6738] (first compound max 10 µM, 7x7, partner max 10 µM): -0.0508
COc1cccc(OCCCN)c1-c1cc(Nc2cnc(C#N)cn2)n[nH]1 [Prexasertib] + CN(C)CCCOc1ccc(-c2ccc3ncc4c(c3c2)n(C2CCOCC2)c(=O)n4C)cn1 [AZD0156] (first compound max 1 µM, 7x7, partner max 1 µM): -0.0163

*Q* // query Bliss excess value for entry COc1cccc(OCCCN)c1-c1cc(Nc2cnc(C#N)cn2)n[nH]1 [Prexasertib] + Cc1cc2ncnn2cc1Nc1ncc2c(n1)n(C1CCOCC1)c(=O)n2C [AZD7648] (first compound max 1 µM, 7x7, partner max 10 µM)
*A* -0.0093
